B1: library; a variant is named by its letters at N, in order (parent)
chain: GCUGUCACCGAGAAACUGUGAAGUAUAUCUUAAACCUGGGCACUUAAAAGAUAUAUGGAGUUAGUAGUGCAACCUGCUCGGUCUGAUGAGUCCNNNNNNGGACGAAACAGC

Variants of: B1
EXPERIMENT SUMMARY: normalized RNA/DNA level without ligand (relative to sTRSVctl = 100) (log10 (% of sTRSVctl)); HEK293T; ligand: cyclic di-GMP (c-di-GMP-II aptamer); higher = less ribozyme self-cleavage, higher mRNA level
ASSAY CONTEXT: reporter: mCherry (pCS4076), ligand present: no
// reported normalized RNA/DNA level without ligand (log10) for each item listed
MEASURE NAME: normalized RNA/DNA level without ligand (log10)

- MUTATION SPEC: "GUAACG"
  ASSAY RESULT: 1.68
- MUTATION SPEC: "GCUGAC"
  ASSAY RESULT: 1.47
- MUTATION SPEC: "GCCAAC"
  ASSAY RESULT: 1.51
- MUTATION SPEC: "AUCCAA"
  ASSAY RESULT: 1.56
- MUTATION SPEC: "AACUCG"
  ASSAY RESULT: 1.66
- MUTATION SPEC: "UAGACU"
  ASSAY RESULT: 1.68
- MUTATION SPEC: "CUGGCG"
  ASSAY RESULT: 1.74
- MUTATION SPEC: "CUCUAG"
  ASSAY RESULT: 1.76
- MUTATION SPEC: "CCUAGU"
  ASSAY RESULT: 1.72
- MUTATION SPEC: "GAUCAU"
  ASSAY RESULT: 1.63
- MUTATION SPEC: "AUUGCC"
  ASSAY RESULT: 1.78
- MUTATION SPEC: "CCUCAC"
  ASSAY RESULT: 1.7
- MUTATION SPEC: "ACCACG"
  ASSAY RESULT: 1.63
- MUTATION SPEC: "GGCCUU"
  ASSAY RESULT: 1.79
- MUTATION SPEC: "UAUCCG"
  ASSAY RESULT: 1.8
- MUTATION SPEC: "UGGUUA"
  ASSAY RESULT: 1.67
- MUTATION SPEC: "UGGUUU"
  ASSAY RESULT: 1.76
- MUTATION SPEC: "GUCUCU"
  ASSAY RESULT: 1.71
- MUTATION SPEC: "CUAUGG"
  ASSAY RESULT: 1.75
- MUTATION SPEC: "AUCUUA"
  ASSAY RESULT: 1.61
- MUTATION SPEC: "AUGCAG"
  ASSAY RESULT: 1.76
- MUTATION SPEC: "GCGAAG"
  ASSAY RESULT: 1.45
- MUTATION SPEC: "GUAAGG"
  ASSAY RESULT: 1.59
- MUTATION SPEC: "GUAUGG"
  ASSAY RESULT: 1.53
- MUTATION SPEC: "GUUUGG"
  ASSAY RESULT: 1.62
- MUTATION SPEC: "GCCGCA"
  ASSAY RESULT: 1.74
- MUTATION SPEC: "CGUCUA"
  ASSAY RESULT: 1.26
- MUTATION SPEC: "CCUUCC"
  ASSAY RESULT: 1.78
- MUTATION SPEC: "ACGUUU"
  ASSAY RESULT: 1.32
- MUTATION SPEC: "GCCCAU"
  ASSAY RESULT: 1.67
- MUTATION SPEC: "CACCGU"
  ASSAY RESULT: 1.71
- MUTATION SPEC: "GAACUU"
  ASSAY RESULT: 1.68
- MUTATION SPEC: "GAUGCU"
  ASSAY RESULT: 1.73
- MUTATION SPEC: "AACGUU"
  ASSAY RESULT: 1.65
- MUTATION SPEC: "ACUGUU"
  ASSAY RESULT: 1.45
- MUTATION SPEC: "CGAUGA"
  ASSAY RESULT: 1.47
- MUTATION SPEC: "GCAAAG"
  ASSAY RESULT: 1.41
- MUTATION SPEC: "CGCCUU"
  ASSAY RESULT: 1.53
- MUTATION SPEC: "GAACCG"
  ASSAY RESULT: 1.72
- MUTATION SPEC: "CCAUGA"
  ASSAY RESULT: 1.52
- MUTATION SPEC: "AUGGUU"
  ASSAY RESULT: 1.46
- MUTATION SPEC: "CAGGGA"
  ASSAY RESULT: 1.53
- MUTATION SPEC: "GAGCGU"
  ASSAY RESULT: 1.81
- MUTATION SPEC: "AUUCGU"
  ASSAY RESULT: 1.79
- MUTATION SPEC: "ACACUA"
  ASSAY RESULT: 1.44

Every entry's value here was drawn from the supplement of paper PMC6757056.
